Target: Thromboxane A2/Prostaglandin H2 (TP) receptor (Homo sapiens)
Construct: endogenous in cells; host or cells: human platelets (from platelet rich plasma)
Sequence (P21731 1-343): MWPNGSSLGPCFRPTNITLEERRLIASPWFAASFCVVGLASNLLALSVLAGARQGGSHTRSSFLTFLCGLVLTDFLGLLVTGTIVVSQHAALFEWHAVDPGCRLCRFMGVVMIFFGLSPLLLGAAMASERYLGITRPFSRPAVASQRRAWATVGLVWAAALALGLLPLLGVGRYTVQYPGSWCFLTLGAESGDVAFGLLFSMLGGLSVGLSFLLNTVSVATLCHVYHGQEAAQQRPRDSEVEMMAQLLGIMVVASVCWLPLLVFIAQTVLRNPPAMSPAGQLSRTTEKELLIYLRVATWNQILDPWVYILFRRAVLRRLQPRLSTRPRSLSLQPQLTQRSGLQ
Test: Radioligand competition binding, TP receptor sites in human platelets ([3H]SQ 29,548)
Conditions: relative to cmpd. 1 (TMQ); PR = antilog [pKi(drug) − pKi(TMQ)]
P.R. (potency ratio), Human TP receptors values, listed per item
Assay Metric: P.R. (potency ratio), Human TP receptors

>  <Compound>
Br.Oc1cc2c(cc1O)C(Cc1cc(I)c(I)c(I)c1)NCC2 (centres unmarked) [Compound 21b]

>  <Assay Metric>
P.R. (potency ratio), Human TP receptors

>  <Result>
0.003

$$$$
>  <Compound>
Cl.Oc1cc2c(cc1O)C(Cc1cc(C(F)(F)F)cc(C(F)(F)F)c1)NCC2 (centres unmarked)

>  <Assay Metric>
P.R. (potency ratio), Human TP receptors

>  <Result>
0.002

$$$$
>  <Compound>
Cl.Cl.Nc1c(I)cc(CC2NCCc3cc(O)c(O)cc32)cc1I (centres unmarked) [Compound 21c]

>  <Assay Metric>
P.R. (potency ratio), Human TP receptors

>  <Result>
0.87

$$$$
>  <Compound>
CC(=O)Nc1ccc(CC2NCCc3cc(O)c(O)cc32)cc1I.I (centres unmarked) [Compound 26a]

>  <Assay Metric>
P.R. (potency ratio), Human TP receptors

>  <Result>
0.11

$$$$
>  <Compound>
I.O=C(Nc1ccc(CC2NCCc3cc(O)c(O)cc32)cc1I)c1ccccc1 (centres unmarked) [Compound 26b]

>  <Assay Metric>
P.R. (potency ratio), Human TP receptors

>  <Result>
0.03

$$$$
